Cited source for all entries: patent US11447504B2

Measured IC50 accompanies every entry in the list below.
- measurementTarget: MCL-1 (Homo sapiens (Human), UniProt Q07820, K194A/K197A/R201A)
- Sequence (Q07820 whole entry K194A/K197A/R201A, looked up): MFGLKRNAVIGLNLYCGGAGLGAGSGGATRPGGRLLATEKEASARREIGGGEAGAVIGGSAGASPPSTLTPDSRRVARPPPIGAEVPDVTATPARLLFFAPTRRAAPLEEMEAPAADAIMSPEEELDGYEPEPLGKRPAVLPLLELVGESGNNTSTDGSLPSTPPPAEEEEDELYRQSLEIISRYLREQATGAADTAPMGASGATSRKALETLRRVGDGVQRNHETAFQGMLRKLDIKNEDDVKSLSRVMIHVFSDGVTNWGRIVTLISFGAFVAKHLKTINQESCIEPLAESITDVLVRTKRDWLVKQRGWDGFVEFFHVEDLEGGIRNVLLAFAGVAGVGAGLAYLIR
- procedureText: Protein-protein interaction assay MCL-1/Noxa BH3 peptide (MCL-1 Assay, TR-FRET)
- runParameters: read-out: MCL-1 Assay IC50 (median)
Note: unit nM is implicit; provide only the numeric part.

{"molecule": "Cc1c2c(nn1CCCN1CCN(C)CC1)COCCCCn1c(C(=O)O)c(CCCOc3cccc4ccccc34)c3ccc(Cl)c-2c31 (single isomer, unassigned; enantiomer 1) [Example 49]", "IC50 (nM)": 0.75}
{"molecule": "CCc1c2c(nn1C)COC/C=C\\Cn1c(C(=O)O)c(CCCOc3cccc4ccccc34)c3ccc(Cl)c-2c31 (racemic)", "IC50 (nM)": 1.3}
{"molecule": "Cc1c2c(nn1CCCN1CCN(C)CC1)COCCCCn1c(C(=O)O)c(CCCOc3cccc4ccccc34)c3ccc(Cl)c-2c31 (racemic) [Example 48]", "IC50 (nM)": 1.7}

Consider the record given below.
Prompt line: Look up and state reported IC50 for Cc1c2c(nn1C)CN(C)CCCCn1c(C(=O)O)c(CCCOc3cccc4cc(F)ccc34)c3ccc(Cl)c-2c31 (single isomer, unassigned; enantiomer 2) [Example 32]
Response line: 26

* * *

- measurementTarget: MCL-1 (Homo sapiens (Human), UniProt Q07820, K194A/K197A/R201A)
- procedureText: Protein-protein interaction assay MCL-1/Noxa BH3 peptide (MCL-1 Assay, TR-FRET)
- runParameters: read-out: MCL-1 Assay IC50 (median)
We begin with a simple list: items and their reported pIC50.
Value format note: pIC50 is -log10 of concentration (mol/L); just state the number.

Answered cases to consult:
{"compound": "Cc1c2c(nn1C)COCC1CC1Cn1c(C(=O)O)c(CCCOc3cccc4ccccc34)c3ccc(Cl)c-2c31 (single isomer, unassigned; stereoisomer 1) [Example 65]", "measurementTarget": "MCL-1 (Homo sapiens (Human), UniProt Q07820, K194A/K197A/R201A)", "experimentalValue": 9.04}
{"compound": "Cc1c2c(nn1C)CN(C)CCCCn1c(C(=O)O)c(CCCOc3cccc4cc(F)ccc34)c3ccc(Cl)c-2c31 (single isomer, unassigned; enantiomer 1) [Example 31]", "measurementTarget": "MCL-1 (Homo sapiens (Human), UniProt Q07820, K194A/K197A/R201A)", "experimentalValue": 9.15}
{"compound": "Cc1nn(C)c2c1-c1cccc3c(CCCOc4cccc5ccccc45)c(C(=O)O)n(c13)CCCCN2Cc1ccccc1", "measurementTarget": "MCL-1 (Homo sapiens (Human), UniProt Q07820, K194A/K197A/R201A)", "experimentalValue": 6.46}
{"compound": "CCc1c2c(nn1C)N(CCC1CCOCC1)CCCCCn1c(C(=O)O)c(CCCOc3cccc4cc(F)ccc34)c3ccc(Cl)c-2c31 (racemic)", "measurementTarget": "MCL-1 (Homo sapiens (Human), UniProt Q07820, K194A/K197A/R201A)", "experimentalValue": 8.70}

Prompt line: Name the recorded pIC50 of the item `Cc1nn(C)c2c1-c1cccc3c(CCCOc4cccc5ccccc45)c(C(=O)O)n(c13)CCCCN2` in your answer.
Response line: 7.37

Prompt line: Return reported pIC50. Input compound: Cc1c2c(nn1C)OCCCCCn1c(C(=O)O)c(CCCOc3cccc4cc(F)ccc34)c3ccc(Cl)c-2c31 (single isomer, unassigned; enantiomer 1)
Response line: 8.72
